assay: folding stability dG unfold from trypsin proteolysis; higher = more stable
Use 1 kcal/mol as the dividing line for folding stability dG unfold, with the line itself on the True side and lower values as False.

[[record]]
seq = "SAGGSAGGSAGGKTLTLEIEINGKLYKIEFSGDSIKITEIKVKPKPKKKEFFSEEELKKKSAGGSAGGSAGG [r7_748_TrROS_Hall]"
class_assignment = "False"


Query string: Answer whether folding stability dG unfold of SAGGSAGGSWDRIKDALRKYGFPPENVKIEFETYPNGNMNVMIRHNGEQIPRNRINKAIQELMSAGGSAGGS [r12_175_TrROS] is greater than or equal to 1 kcal/mol.
Result string: True

Query string: Answer whether folding stability dG unfold of SAGGSAGGSAKMIFVKNEDGTITMFTLNEDGYLTVTTVTLDKKTKKMTVETKTIKLTDPELLSAGGSAGGSA [r18_503_TrROS_Hall] is greater than or equal to 1 kcal/mol.
Result string: True

Query string: Answer whether folding stability dG unfold of SAGGSAGGSAGGAAPDDVKIEIEWDVGVMTMEMMNPGGQPHKMYMIMVSLKIEIEPNADSAGGSAGGSAGGS [r10_1212_TrROS] is greater than or equal to 1 kcal/mol.
Result string: True

Query string: Answer whether folding stability dG unfold of SAGKDEKLVKVIVKFNDKTFEVVVKEEDLKKLVESGILKVVGKIPGKNIVAIKVEVPPPKGDPVGPTPVSAG [r5_868_TrMRF] is greater than or equal to 1 kcal/mol.
Result string: True

Query string: Answer whether folding stability dG unfold of SAGGSAGGSAGNMWDQALRAAREAKDQGDEEVVIHFPPNMKNWVKEWAEDLGWPIKIQPTSAGGSAGGSAGG [r11_371_TrROS] is greater than or equal to 1 kcal/mol.
Result string: False

Query string: Answer whether folding stability dG unfold of SAGKWKVRTIPLPGFSITIWYDPDEGRIRISITMWMWKPKKDPENGKPKQEHRMMTMEAPIPIPPGAPISAG [r5_195_TrROS] is greater than or equal to 1 kcal/mol.
Result string: True
